Taken from patent US9415055B2.

Target: P2X7 receptor (Homo sapiens (Human), UniProt Q99572)
Sequence (Q99572 whole entry): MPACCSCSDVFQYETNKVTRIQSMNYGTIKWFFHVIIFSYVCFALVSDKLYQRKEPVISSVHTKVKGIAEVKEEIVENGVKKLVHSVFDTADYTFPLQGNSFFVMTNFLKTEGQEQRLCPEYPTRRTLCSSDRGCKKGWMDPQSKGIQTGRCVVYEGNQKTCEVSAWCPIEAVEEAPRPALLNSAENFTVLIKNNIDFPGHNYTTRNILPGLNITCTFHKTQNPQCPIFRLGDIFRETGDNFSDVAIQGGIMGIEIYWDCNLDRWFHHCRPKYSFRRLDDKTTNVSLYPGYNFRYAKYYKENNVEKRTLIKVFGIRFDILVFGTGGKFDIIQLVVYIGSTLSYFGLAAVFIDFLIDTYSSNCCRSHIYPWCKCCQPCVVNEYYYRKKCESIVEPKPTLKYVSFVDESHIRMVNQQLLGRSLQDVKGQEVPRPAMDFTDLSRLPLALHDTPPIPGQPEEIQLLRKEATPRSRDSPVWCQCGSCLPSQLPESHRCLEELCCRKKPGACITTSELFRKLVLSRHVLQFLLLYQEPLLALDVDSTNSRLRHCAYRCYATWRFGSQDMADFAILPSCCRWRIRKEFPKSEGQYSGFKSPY
Test: P2X7 FLIPR assay: antagonism of BzATP response in 293 HEK cells stably expressing P2X7 receptor
Conditions: FLIPR fluorescence (Fluo-4), agonist BzATP, 293 HEK cells stably transfected with P2X7 receptor
property measured: log10 of IC50 (log10 of the value in nM)

1. Cc1ccc(C(CNC(=O)c2cccc(F)c2Cl)N2CCC(F)(F)CC2)cn1 (single isomer, unassigned; (+)) [(+)2-chloro-N-[2-(4,4-difluoro-1-piperidyl)-2-(6-methyl-3-py]	1.52
2. O=C(NCC(c1cnc(C(F)(F)F)nc1)N1CCC(F)(F)CC1)c1c(Cl)cccc1Cl (single isomer, unassigned; (+)) [(+)2,6-dichloro-N-[2-(4,4-difluoro-1-piperidyl)-2-[2-(triflu]	0.67
3. Cc1ncc(C(CNC(=O)c2cccc(Cl)c2Cl)N2CCC(F)(F)CC2)cn1 (single isomer, unassigned; (-)) [(−)2,3-dichloro-N-[2-(4,4-difluoro-1-piperidyl)-2-(2-methylp]	0.76
4. O=C(NCC(c1cnc(C2CC2)nc1)N1CCC(F)(F)CC1)c1c(Cl)cccc1Cl (single isomer, unassigned; (+))	0.72
5. COc1ccc(C(CNC(=O)c2cccc(Cl)c2Cl)N2CCCCC2)cc1 (stereo not drawn)	2.54
6. CCc1ncc(C(CNC(=O)c2ccccc2Cl)N2CCC(F)(F)CC2)cn1 (single isomer, unassigned; (-)) [(−)2-chloro-N-[2-(4,4-difluoro-1-piperidyl)-2-(2-ethylpyrimi]	1.23
